// data source = ChEMBL document CHEMBL1157617

System: Nucleic Acid
PROCEDURE_SUMMARY: Induction of conformational changes in Escherichia coli pBR322 DNA assessed as DNA relaxation at 100 uM after 2 hrs by gel electrophoresis
Format: nucleic-acid assay
Active and inactive are the calls of the source. No cut-off for these calls is given here.
Please reply with one of these outcomes: active, inactive

Please review the following examples before continuing.
CCCCCCCCCCCCN1C(=O)c2cccc3c(NCCNCCN(C)C)ccc(c23)C1=O: inactive
CCCCCCCCN1C(=O)c2cccc3c(NCCN4CCN(C)CC4)ccc(c23)C1=O: inactive
COc1cccc2c1C(=O)c1c(O)c3c(c(O)c1C2=O)C[C@@](O)(C(=O)CO)C[C@@H]3O[C@H]1C[C@H](N)[C@H](O)[C@H](C)O1: active
CCCCCCCCN1C(=O)c2cccc3c(NCCNCCN(C)C)ccc(c23)C1=O: inactive
CCCCCCCCCCCCNc1ccc2c3c(cccc13)C(=O)N(CCCNCCN(C)C)C2=O: inactive

Enquiry: Could you check what this test reported for CCCCCCCCCCCCNc1ccc2c3c(cccc13)C(=O)N(CCCN1CCN(C)CC1)C2=O ?
Return: inactive

Enquiry: For this compound, state the assay outcome: CCCCCCCCCCCCN1C(=O)c2cccc3c(NCCN4CCN(C)CC4)ccc(c23)C1=O
Return: inactive

Enquiry: Entry CCCCCCCCNc1ccc2c3c(cccc13)C(=O)N(CCCN1CCN(C)CC1)C2=O : call = ?
Return: inactive

Enquiry: Fill in: this test's call for CCCCCCCCNc1ccc2c3c(cccc13)C(=O)N(CCCNCCN(C)C)C2=O is ___
Return: inactive
